test: in vivo; parameters: species or system mice; settings: M-NSG, mouse, iv, 100 uCi, total radioactivity, % ID/g Liver
Non-standard residues stand in square brackets, D forms with d. Residues, ends and D or L forms follow the SMILES beside them. *: point of attachment. DOTA = O=C(O)CN1CCN(CC(=O)O)CCN(CC(=O)*)CCN(CC(=O)O)CC1; PEG4 = NCCOCCOCCOCCOCCC(=O)O; Aib = CC(C)(N)C(=O)O; AEA = NCCOCC(=O)O
Value kind: tissue uptake at 1 h (%ID/g)
Give bare numbers, in %ID/g.

Value of measured tissue uptake at 1 h for the entry CC[C@H](C)[C@H](NC(=O)[C@@H](NC(=O)[C@H](CC(=O)O)NC(=O)[C@H](CC(N)=O)NC(=O)COCCNC(=O)CN1CCN(CC(=O)O)CCN(CC(=O)O)CCN(CC(=O)O)CC1)C(C)C)C(=O)N[C@@H](CC(N)=O)C(=O)O [^68Ga-TM13, metal not drawn] ({DOTA-AEA}-NDVIN-OH) : 0.5

Please give tissue uptake at 1 h for each item listed below.
1. CC[C@H](C)[C@H](NC(=O)[C@@H](NC(=O)[C@H](CC(=O)O)NC(=O)[C@H](CC(N)=O)NC(=O)CCOCCOCCOCCOCCNC(=O)CN1CCN(CC(=O)O)CCN(CC(=O)O)CCN(CC(=O)O)CC1)C(C)C)C(=O)N[C@@H](CC(N)=O)C(=O)O [^68Ga-TM5, metal not drawn] ({DOTA-PEG4}-NDVIN-OH)
2. CC[C@H](C)[C@H](NC(=O)C(C)(C)NC(=O)[C@H](CC(=O)O)NC(=O)[C@H](CC(N)=O)NC(=O)CN1CCN(CC(=O)O)CCN(CC(=O)O)CCN(CC(=O)O)CC1)C(=O)N[C@@H](CC(N)=O)C(=O)O [^68Ga-TM11, metal not drawn] ({DOTA}-ND[Aib]IN-OH)
3. CC[C@H](C)[C@H](NC(=O)[C@@H](NC(=O)[C@H](CC(=O)O)NC(=O)[C@H](CC(N)=O)NC(=O)CN1CCN(CC(=O)O)CCN(CC(=O)O)CCN(CC(=O)O)CC1)C(C)C)C(=O)N[C@@H](CC(N)=O)C(=O)O [^68Ga-TM4, ^68Ga-DOTA-Asn-Asp-Val-Ile-Asn-OH, metal not drawn] ({DOTA}-NDVIN-OH)

Response line:
0.5
0.43
0.79

Value of measured tissue uptake at 1 h for the entry CC[C@H](C)[C@H](NC(=O)[C@@H](NC(=O)[C@H](CC(=O)O)NC(=O)[C@H](CC(N)=O)NC(=O)[C@H](CC(=O)O)NC(=O)CNC(=O)[C@H](CCCNC(=N)N)NC(=O)CCOCCOCCOCCOCCNC(=O)CN1CCN(CC(=O)O)CCN(CC(=O)O)CCN(CC(=O)O)CC1)C(C)C)C(=O)N[C@@H](CC(N)=O)C(=O)O [^68Ga-TM7, metal not drawn] ({DOTA-PEG4}-RGDNDVIN-OH) : 0.53

* * *

assay: in vivo; parameters: species or system mice; details: naked (nude), mouse, iv, 100 uCi, total radioactivity, % ID/g Bone
Non-standard residues stand in square brackets, D forms with d. Residues, ends and D or L forms follow the SMILES beside them. *: point of attachment. DOTA = O=C(O)CN1CCN(CC(=O)O)CCN(CC(=O)*)CCN(CC(=O)O)CC1; Aib = CC(C)(N)C(=O)O; AEA = NCCOCC(=O)O
Please go through the items and note down their tissue uptake at 1 h.
Give bare numbers, in %ID/g.

Value of measured tissue uptake at 1 h for the entry CC[C@H](C)[C@H](NC(=O)[C@@H](NC(=O)[C@H](CC(=O)O)NC(=O)[C@H](CC(N)=O)NC(=O)COCCNC(=O)CN1CCN(CC(=O)O)CCN(CC(=O)O)CCN(CC(=O)O)CC1)C(C)C)C(=O)N[C@@H](CC(N)=O)C(=O)O [^68Ga-TM13, metal not drawn] ({DOTA-AEA}-NDVIN-OH) : 0.05

Further cases:
Value of measured tissue uptake at 1 h for the entry CC[C@H](C)[C@H](NC(=O)C(C)(C)NC(=O)[C@H](CC(=O)O)NC(=O)[C@H](CC(N)=O)NC(=O)CN1CCN(CC(=O)O)CCN(CC(=O)O)CCN(CC(=O)O)CC1)C(=O)N[C@@H](CC(N)=O)C(=O)O [^68Ga-TM11, metal not drawn] ({DOTA}-ND[Aib]IN-OH) : 0.08
